molecular target: HLA-B*4403 (human); experiment: competition with labeled probe peptide, purified HLA class I
ENDPOINT_NAME: IC50 (nM)
Numbers only, in nM.

Look up IC50 for this binder: PEEGLEARGEA [PEEGLEARGEA (MAGE2, position 12)] 950
